Answer each item with its documented pEC50.
system: INS-1E cells; test: cells; format: cell-based, rat; details: Rattus norvegicus, INS-1E; read-out: Insulin Secretion
pEC50: −log10 of the molar value. Where a SMILES comes first, the peptide text is derived from it. [ ]: non-standard residue; d: D form. The star is where a group is joined. Sta = CC(C)C[C@H](N)[C@@H](O)CC(=O)O; Isovaleryl = CC(C)CC(=O)*

# input compound: CC(C)CC(=O)N[C@H](C(=O)N[C@H](C(=O)N[C@@H](CC(C)C)[C@@H](O)CC(=O)N[C@@H](C)C(=O)N[C@@H](CC(C)C)[C@@H](O)CC(=O)O)C(C)C)C(C)C [Pepstatin] (Isovaleryl-VV[Sta]A[Sta]-OH) ; wanted: its pEC50
< 5.00

Next compound: COc1ccc2c(c1)C(=O)N(CCc1ccc(S(=O)(=O)NC(=O)NC3CCCCC3)cc1)C(=O)C2(C)C [gliquidone, reference compound]
6.64

Would you mind doing COc1cccc2c1C(=O)c1c(O)c3c(c(O)c1C2=O)C[C@@](O)(C(=O)CO)C[C@@H]3O[C@H]1C[C@H](N)[C@H](O[C@@H]2CCCCO2)[C@H](C)O1 [pirarubicin] as well?
< 5.00

* * *

Answer each item with its documented pIC50.
target: hKDR (Homo sapiens, UniProt P35968); construct: purchased Cerep (LANCE kinase assay platform, contract assay); assay: Cerep LANCE kinase assay hKDR (S1 assay 32); assay type: biochemical; settings: read-out: KDR
Sequence (P35968 20-1356): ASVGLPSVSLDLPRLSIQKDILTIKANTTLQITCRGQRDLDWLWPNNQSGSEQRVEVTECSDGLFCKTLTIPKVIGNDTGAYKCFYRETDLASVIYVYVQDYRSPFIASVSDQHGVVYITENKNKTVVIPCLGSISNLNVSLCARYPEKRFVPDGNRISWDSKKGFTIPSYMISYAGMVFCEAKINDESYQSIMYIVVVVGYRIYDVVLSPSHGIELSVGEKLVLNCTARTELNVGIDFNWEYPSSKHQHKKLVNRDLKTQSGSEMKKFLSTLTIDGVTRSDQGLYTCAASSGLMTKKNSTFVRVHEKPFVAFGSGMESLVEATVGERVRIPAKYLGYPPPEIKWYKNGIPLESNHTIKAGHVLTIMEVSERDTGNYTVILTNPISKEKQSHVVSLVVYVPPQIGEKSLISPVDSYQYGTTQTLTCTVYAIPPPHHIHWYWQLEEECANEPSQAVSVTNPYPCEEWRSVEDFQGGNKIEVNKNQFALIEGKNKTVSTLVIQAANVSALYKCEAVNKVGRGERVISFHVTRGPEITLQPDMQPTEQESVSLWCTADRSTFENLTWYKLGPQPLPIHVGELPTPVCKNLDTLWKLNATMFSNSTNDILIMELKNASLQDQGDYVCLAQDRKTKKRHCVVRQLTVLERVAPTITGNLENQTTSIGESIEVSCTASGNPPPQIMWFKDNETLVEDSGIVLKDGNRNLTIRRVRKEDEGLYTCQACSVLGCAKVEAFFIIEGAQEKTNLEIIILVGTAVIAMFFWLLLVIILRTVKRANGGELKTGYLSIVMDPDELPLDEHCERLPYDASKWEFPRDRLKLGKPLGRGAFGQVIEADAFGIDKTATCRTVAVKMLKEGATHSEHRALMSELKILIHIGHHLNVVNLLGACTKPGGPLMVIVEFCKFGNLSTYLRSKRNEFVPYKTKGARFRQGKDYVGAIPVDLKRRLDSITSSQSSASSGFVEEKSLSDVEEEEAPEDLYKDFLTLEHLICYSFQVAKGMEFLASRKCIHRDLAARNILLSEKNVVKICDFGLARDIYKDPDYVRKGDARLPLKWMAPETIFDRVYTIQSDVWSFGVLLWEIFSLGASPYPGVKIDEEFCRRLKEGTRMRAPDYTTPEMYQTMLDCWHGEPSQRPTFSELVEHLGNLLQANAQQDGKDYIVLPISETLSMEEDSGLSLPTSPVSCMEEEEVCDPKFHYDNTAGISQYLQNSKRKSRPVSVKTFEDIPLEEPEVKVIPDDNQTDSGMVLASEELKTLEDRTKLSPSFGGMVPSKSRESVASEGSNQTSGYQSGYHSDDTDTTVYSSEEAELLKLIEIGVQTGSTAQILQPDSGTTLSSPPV
pIC50: −log10 of the molar value.

Request the reported pIC50 associated with Cc1ccc2nc(N)[nH]c(=O)c2c1Sc1ccncc1 [nolatrexed, reference compound]
< 4.70

Try "COc1ccc2cc1Oc1ccc(cc1)C[C@H]1c3c(cc4c(c3Oc3cc5c(cc3OC)CCN(C)[C@@H]5C2)OCO4)CCN1C" next.
< 4.70

What do we get for "CCCCCCNC(=O)n1cc(F)c(=O)[nH]c1=O" ?
< 4.70

Subsequent entry: CC(C)C[C@H](NC(=O)[C@H](Cc1ccccc1)NC(=O)c1cnccn1)B(O)O [bortezomib, reference compound]
< 4.70

Continue with "Cc1cc(O)c2ccccc2c1O"
4.74

Next compound: "COc1cccc2c1C(=O)c1c(O)c3c(c(O)c1C2=O)C[C@@](O)(C(C)=O)C[C@@H]3O[C@H]1C[C@H](N)[C@H](O)[C@H](C)O1"
< 4.70

Next entry: "CC[C@@H]([C@H](C)O)n1ncn(-c2ccc(N3CCN(c4ccc(OC[C@@H]5CO[C@@](Cn6cncn6)(c6ccc(F)cc6F)C5)cc4)CC3)cc2)c1=O"
< 4.70

* * *

tested on: DLD-1; assay: cells; type: cell-based; conditions: basal; DLD-1; read-out: Basal_Viability ATP DLD-1
MEASUREMENT_LABEL: IC50 (µM)
Please give a number only; it is taken to be in µM.

Find the recorded IC50 belonging to C[n+]1c2cc(N)ccc2cc2ccc(N)cc21 [Acriflavinium chloride] and report it.
4.03

Entry to check: "COC(=O)c1nc(Cl)c(Cl)nc1N"
0.835

* * *

tested on: HeLa cells; assay: cells; type: cell-based; details: assay number 14; 2N
MEASUREMENT_LABEL: Hela CellCycMod PI 2N IC50/EC50

Could you share which Hela CellCycMod PI 2N IC50/EC50 value was measured for COc1c(C)c2c(c(O)c1C/C=C(\C)CCC(=O)OCCN1CCOCC1)C(=O)OC2 [NCGC00159459-04] ?
> 10 µM

Request: CCCN(CCC)C(=O)C(CCC(=O)OCCCN1CCN(CCOC(=O)Cc2c(C)n(C(=O)c3ccc(Cl)cc3)c3ccc(OC)cc23)CC1)NC(=O)c1ccccc1 (stereo not drawn) [NCGC00183024-01]
> 10 µM

Input Nc1nc(F)nc2c1ncn2[C@@H]1O[C@H](CO)[C@@H](O)[C@@H]1O [NCGC00182047-03]
> 10 µM

// repeat for CCCOc1ccc2nc(NC(=O)OC)[nH]c2c1 [NCGC00018238-09] and report
0.0622 µM

Query CCC(C)n1ncn(-c2ccc(N3CCN(c4ccc(OC[C@H]5CO[C@](Cn6cncn6)(c6ccc(Cl)cc6Cl)O5)cc4)CC3)cc2)c1=O (stereo partly drawn) [NCGC00274068-01] next
> 10 µM

Same question for C[C@@]12C(=O)OC(=O)[C@]1(C)C1CCC2O1 [NCGC00025212-08] please.
> 10 µM

Entry to check: CC[C@H](C)C(=O)O[C@H]1C[C@@H](C)C=C2C=C[C@H](C)[C@H](CC[C@@H]3C[C@@H](O)CC(=O)O3)[C@H]21 [NCGC00023509-13]
> 10 µM

Queued: O=C1c2c(O)ccc(O)c2C(=O)c2c(NCCNCCO)ccc(NCCNCCO)c21 [NCGC00015693-09]
> 10 µM

Next molecule up: CN(C)CCOC(c1ccccc1)c1ccc(Br)cc1 (stereo not drawn) [NCGC00249891-01]
> 10 µM

// repeat for CCCCCCCCCCCCCCCC[N+](C)(C)CCN(Cc1ccc(OC)cc1)c1ncccn1.[Br-] [NCGC00016507-05] and report
> 10 µM

Try CS(=O)(=O)O.Cc1ccc2c(c1)c1c3n2CCNC3CCC1 (stereo not drawn) [NCGC00024749-04] next.
> 10 µM

Entry O=c1[nH]c(=O)n([C@H]2C[C@H](O)[C@@H](CO)O2)cc1Br [NCGC00090770-09] please
> 10 µM

Same lookup for CC[C@@H]([C@H](C)O)n1ncn(-c2ccc(N3CCN(c4ccc(OC[C@@H]5CO[C@@](Cn6cncn6)(c6ccc(F)cc6F)C5)cc4)CC3)cc2)c1=O [NCGC00274060-01] , please.
> 10 µM

Next molecule: Cl.O=C1[C@H]2CCCC[C@H]2C(=O)N1CCCCN1CCN(c2nsc3ccccc23)CC1 [NCGC00164567-02]
> 10 µM

Please answer likewise for Cc1cc2c(C(C)C)c(O)c(O)c(C=O)c2c(O)c1-c1c(C)cc2c(C(C)C)c(O)c(O)c(C=O)c2c1O [NCGC00016423-15]
> 10 µM

And CC(=O)[C@]1(O)Cc2c(O)c3c(c(O)c2[C@@H](O[C@H]2C[C@H](N)[C@H](O)[C@H](C)O2)C1)C(=O)c1ccccc1C3=O [NCGC00093976-08] ?
0.0111 µM

Also, COc1ccc2cc1Oc1ccc(cc1)C[C@H]1c3c(cc4c(c3Oc3cc5c(cc3OC)CCN(C)[C@@H]5C2)OCO4)CCN1C [NCGC00161621-03] please.
> 10 µM

Then this molecule: Cc1ccc2nc(N)[nH]c(=O)c2c1Sc1ccncc1.Cl.Cl [NCGC00263580-01]
> 10 µM

And what about the molecule C1CN(P2(N3CC3)=NP(N3CC3)(N3CC3)=NP(N3CC3)(N3CC3)=N2)CCO1 (stereo not drawn) [NCGC00160420-02] ?
> 10 µM

Entry CCN(CCCCOC(=O)c1ccc(OC)c(OC)c1)C(C)Cc1ccc(OC)cc1.Cl (stereo not drawn) [NCGC00018277-06] please
> 10 µM

Would you mind doing CSc1ccc2c(c1)C(N1CCN(C)CC1)Cc1ccccc1S2 (stereo not drawn) [NCGC00024665-10] as well?
> 10 µM

Also CN1CCC(Nc2ncc3ncnc(Nc4ccc(F)c(Cl)c4)c3n2)CC1 [NCGC00161422-04] ?
> 10 µM

And for NCCCC[C@H](N[C@@H](CCc1ccccc1)C(=O)O)C(=O)N1CCC[C@H]1C(=O)O [NCGC00179623-04] ?
> 10 µM

How about this molecule: O=C(O)c1ccc(-n2nc(-c3ccccc3O)nc2-c2ccccc2O)cc1 [NCGC00263572-01]
> 10 µM

Now give it for Cc1cc(O)c2ccccc2c1O [NCGC00253592-01] too.
> 10 µM

Same question, Cl.Oc1ccc([C@H]2CNCc3c2ccc(O)c3O)cc1O [NCGC00183049-01] this time
> 10 µM

Okay, and COc1cccc2c1C(=O)c1c(O)c3c(c(O)c1C2=O)C[C@@](O)(C(C)=O)C[C@@H]3O[C@H]1C[C@H](N)[C@H](O)[C@H](C)O1 [NCGC00024246-15] ?
0.01016 µM

Likewise for Cc1nc2ccccc2n1Cc1ccc(Cl)cc1 [NCGC00160416-02] ?
> 10 µM

And then COC(=O)[C@H]1[C@H]2C[C@@H]3c4[nH]c5cc(OC)ccc5c4CCN3C[C@H]2C[C@@H](OC(=O)/C=C/c2ccc(O)c(OC)c2)[C@@H]1OC [NCGC00253604-01] , what is it?
> 10 µM

Can you check Cc1cc(=O)c2c(O)c3c(O)cc(=O)c4c3c3c(cc(O)c1c23)C(C)(C)C=4O [NCGC00160275-03] next?
> 10 µM
